experiment: Pharmacokinetics in mice; type: in vivo, mouse; settings: female, Balb/c, mouse, in vivo, po, 20 umol/kg; 20 μmol/kg p.o.
recorded-endpoint: AUC(0-t)
Lab note: write values as number then unit, every time.

So what's the measured AUC(0-t) for this one? C[C@]12C=CC(=O)C=C1CC[C@@H]1[C@@H]2[C@@H](O)C[C@@]2(C)[C@H]1CC[C@]2(O)C(=O)CO [prednisolone, reference compound]
11 µM·h

* * *

test: Pharmacokinetics in mice; assay type: in vivo, mouse; settings: female, Balb/c, mouse, in vivo, iv, 4 umol/kg; 4 μmol/kg i.v.; read-out: T1/2 eli (converted)
recorded-endpoint: half-life (h)
Report as a plain number; the unit h is understood.

So what's the measured half-life for this one? Cc1nnsc1C(=O)N[C@H]1CCN2c3ccc(C#N)cc3[C@@H](C)c3ccccc3[C@@H]2C1 [Org 214007-0]
6.4

* * *

assay: Pharmacokinetics in mice; assay type: in vivo, mouse; settings: female, Balb/c, mouse, in vivo, iv, 10 umol/kg; 10 μmol/kg i.v.
recorded-endpoint: MRT inf (min)
Report as a plain number; the unit min is understood.

So what's the measured MRT inf for this one? C[C@]12C=CC(=O)C=C1CC[C@@H]1[C@@H]2[C@@H](O)C[C@@]2(C)[C@H]1CC[C@]2(O)C(=O)CO [prednisolone, reference compound]
24

* * *

tested on: primary human whole blood cells; test: Human whole blood PMA/anti-CD28-induced cytokine release; format: cell-based; conditions: Whole blood cell; human whole blood, 24 hours; read-out: EC50, enhancement of PMA/anti-CD28-induced G-CSF release
recorded-endpoint: pEC50
Keep it numeric: pEC50 is minus log10 of the concentration in mol/L.

So what's the measured pEC50 for this one? "Cc1nnsc1C(=O)N[C@H]1CCN2c3ccc(C#N)cc3[C@@H](C)c3ccccc3[C@@H]2C1"
6.73

* * *

molecular target: human estrogen receptor beta (ERβ) (Homo sapiens, UniProt Q92731); experiment: CHO steroid receptor reporter assay, ERβ / rat oxytocin-Luc; conditions: ERß; read-out: IC50 (antagonist)
Sequence (Q92731 whole entry): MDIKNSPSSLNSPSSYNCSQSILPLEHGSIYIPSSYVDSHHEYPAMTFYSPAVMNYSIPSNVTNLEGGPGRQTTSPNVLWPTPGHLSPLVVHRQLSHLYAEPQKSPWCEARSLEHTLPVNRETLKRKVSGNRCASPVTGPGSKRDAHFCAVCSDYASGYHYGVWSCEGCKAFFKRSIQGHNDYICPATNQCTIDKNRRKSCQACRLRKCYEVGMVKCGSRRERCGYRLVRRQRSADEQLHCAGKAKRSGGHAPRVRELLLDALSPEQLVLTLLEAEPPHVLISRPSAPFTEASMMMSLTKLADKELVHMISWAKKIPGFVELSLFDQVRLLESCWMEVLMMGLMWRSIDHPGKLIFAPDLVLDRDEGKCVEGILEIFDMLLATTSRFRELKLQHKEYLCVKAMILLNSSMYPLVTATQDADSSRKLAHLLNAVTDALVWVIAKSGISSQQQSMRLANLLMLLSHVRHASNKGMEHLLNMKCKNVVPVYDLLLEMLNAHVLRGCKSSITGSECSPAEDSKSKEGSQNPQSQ
pIC50: −log10 of the molar value.
recorded-endpoint: pIC50

So what's the measured pIC50 for this one? "Cc1nnsc1C(=O)N[C@H]1CCN2c3ccc(C#N)cc3[C@@H](C)c3ccccc3[C@@H]2C1"
< 6.00

* * *

test: Pharmacokinetics in mice; type: in vivo, mouse; conditions: mouse, in vivo, po, 10 umol/kg; 10 μmol/kg p.o., female Balb/c mice
recorded-endpoint: Tmax (min)
Report as a plain number; the unit min is understood.

So what's the measured Tmax for this one? Cc1nnsc1C(=O)N[C@H]1CCN2c3ccc(C#N)cc3[C@@H](C)c3ccccc3[C@@H]2C1 [Org 214007-0]
30

* * *

experiment: Pharmacokinetics in mice; type: in vivo, mouse; conditions: female, Balb/c, mouse, in vivo, iv, 10 umol/kg; 10 μmol/kg i.v.
recorded-endpoint: AUC(0-t) (µM·h)
Report as a plain number; the unit µM·h is understood.

So what's the measured AUC(0-t) for this one? C[C@]12C=CC(=O)C=C1CC[C@@H]1[C@@H]2[C@@H](O)C[C@@]2(C)[C@H]1CC[C@]2(O)C(=O)CO [prednisolone, reference compound]
7.1

Reference for the values: paper PMC3495945
